Give measured cell viability for each item. Keep answers brief.
Tested on: MDA-MB-231;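 note: viability of the cells left after supernatant collection, read with Deep Blue dye added for 4 h, as absorbance at 570 nm minus 600 nm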
Measurement protocol: cell viability relative to vehicle unstimulated control (fraction); higher = more viable cells
Condition details: pre-treatment time: 18 h then 24 h IFNg/TNF
# answer = number (no unit)

QUERY: cell viability lookup needed for CC(=O)OC[C@H]1O[C@@H](OC[C@H]2O[C@@H](OC(=O)[C@]34CCC(C)(C)C[C@H]3C3=CC[C@@H]5[C@@]6(C)CC[C@H](O[C@@H]7OC[C@H](O)[C@H](O)[C@H]7O[C@@H]7O[C@H](CO)[C@@H](O)[C@H](O)[C@H]7O)C(C)(C)[C@@H]6CC[C@@]5(C)[C@]3(C)CC4)[C@H](O)[C@@H](O)[C@@H]2O)[C@H](O)[C@@H](O)[C@@H]1O[C@@H]1O[C@@H](C)[C@H](O)[C@@H](O)[C@H]1O [Acanthopanaxoside B] (compound dose: 10 uM) , thanks.
RESULT: 1.09

QUERY: cell viability lookup needed for O=C1C[C@@H](c2ccc(O)cc2)Oc2cc(O)cc(O)c21 [Naringenin] (compound dose: 10 uM) , thanks.
RESULT: 0.921

QUERY: cell viability lookup needed for C=C(C)[C@@H]1CC=C(CO)CC1 [(S)-(-)-Perillyl alcohol] (compound dose: 10 uM) , thanks.
RESULT: 0.984

QUERY: cell viability lookup needed for CC(C)(O)[C@H]1CC[C@@](C)([C@H]2[C@@H](O)C[C@@]3(C)[C@@H]4C[C@H](O)[C@H]5C(C)(C)[C@@H](O)CC[C@@]56C[C@@]46CC[C@]23C)O1 [Cyclogalegenin] (compound dose: 10 uM) , thanks.
RESULT: 0.999

QUERY: cell viability lookup needed for Cc1ccc(C(C)C)cc1O [Carvacrol] (compound dose: 10 uM) , thanks.
RESULT: 1.06

QUERY: cell viability lookup needed for C[C@@H]1CC[C@@]2(OC1)O[C@H]1C[C@H]3[C@@H]4CC=C5C[C@@H](O[C@@H]6O[C@H](CO)[C@@H](O)[C@H](O[C@@H]7O[C@H](CO)[C@@H](O)[C@H](O)[C@H]7O)[C@H]6O[C@@H]6O[C@@H](C)[C@H](O)[C@@H](O)[C@H]6O)CC[C@]5(C)[C@H]4CC[C@]3(C)[C@H]1[C@@H]2C [Gracillin] (compound dose: 10 uM) , thanks.
RESULT: 0.0777

QUERY: cell viability lookup needed for O=c1ccn2c(n1)O[C@H]1[C@H](O)[C@@H](CO)O[C@H]12 [2,2'-Anhydrouridine] (compound dose: 10 uM) , thanks.
RESULT: 0.906

QUERY: cell viability lookup needed for CC(=O)OCC1=COC(OC(C)=O)C2C(C)CCC12 (centres undefined) [Teucrein] (compound dose: 10 uM) , thanks.
RESULT: 0.889

QUERY: cell viability lookup needed for O=C(O)c1cncc(C(=O)O)c1 [3-5-pyridinedicarboxylic acid] (compound dose: 10 uM) , thanks.
RESULT: 1.04

QUERY: cell viability lookup needed for CC(C)=C[C@H]1C[C@](C)(O)[C@H]2[C@H]3CC[C@@H]4[C@@]5(C)CC[C@H](O[C@@H]6O[C@H](CO)[C@@H](O)[C@H](O[C@@H]7O[C@H](CO)[C@@H](O)[C@H](O)[C@H]7O)[C@H]6O[C@@H]6O[C@@H](CO)[C@H](O)[C@H]6O)C(C)(C)[C@@H]5CC[C@@]4(C)[C@@]34CO[C@@]2(C4)O1 [Bacoside A3] (compound dose: 10 uM) , thanks.
RESULT: 0.944

QUERY: cell viability lookup needed for CC(=O)O[C@]12C[C@H](C)[C@H](OC(=O)/C=C/c3ccccc3)[C@@H]1/C=C(/CO)CC[C@H]1[C@@H](/C=C(\C)C2=O)C1(C)C [Euphorbia factor L22] (compound dose: 10 uM) , thanks.
RESULT: 1.11

QUERY: cell viability lookup needed for C=C1C(=O)O[C@H]2C[C@@H](C)[C@@H]3[C@@H](OC(C)=O)C[C@H](O)[C@@]3(C)[C@@H](OC(C)=O)[C@H]12 [Britannin] (compound dose: 10 uM) , thanks.
RESULT: 1.01

QUERY: cell viability lookup needed for C=C(CCC=C(C)C)[C@H]1CC[C@]2(C)[C@@H]1[C@H](O)C[C@@H]1[C@@]3(C)CC[C@H](O)C(C)(C)[C@@H]3[C@@H](O[C@@H]3O[C@H](CO)[C@@H](O)[C@H](O)[C@H]3O)C[C@]12C [Ginsenoside Rk3] (compound dose: 10 uM) , thanks.
RESULT: 0.96

QUERY: cell viability lookup needed for C=C1CCC[C@]2(C)CC[C@@H](C(C)(C)O)C[C@@H]12 [Beta-Eudesmol] (compound dose: 10 uM) , thanks.
RESULT: 1.08

QUERY: cell viability lookup needed for COc1cc2ccc(=O)oc2cc1O[C@@H]1O[C@H](CO)[C@@H](O)[C@H](O)[C@H]1O [Scopolin] (compound dose: 10 uM) , thanks.
RESULT: 1.01

QUERY: cell viability lookup needed for C/C1=C\[C@H]2C(=O)[C@@H](C)C[C@]2(O)C(=O)/C(C)=C/[C@@H]2[C@H](CC1)C2(C)C [jolkinol C] (compound dose: 10 uM) , thanks.
RESULT: 1.07

QUERY: cell viability lookup needed for CC1OC2OC3C(OCC(O)C3O)OC(=O)C34CCC(C)(C)CC3C3=CCC5C6(C)CC(O)C(OC7OC(CO)C(O)C(O)C7OC7OCC(OC(=O)CC(C)(O)CC(=O)OC1C(OC1OCC(O)C(O)C1O)C2O)C(O)C7O)C(C)(CO)C6CCC5(C)C3(C)CC4O (centres undefined) [Tubeimoside II] (compound dose: 10 uM) , thanks.
RESULT: 0.387

QUERY: cell viability lookup needed for C=C1C(=O)O[C@@H]2/C=C(\C)CC/C=C(\C)CC[C@@H]12 [Costunolide] (compound dose: 10 uM) , thanks.
RESULT: 1.03

QUERY: cell viability lookup needed for O[C@H]1[C@H]2c3cc4c(cc3CN3CC[C@H](C[C@@H]1O)[C@H]23)OCO4 [Dihydrolycorine] (compound dose: 10 uM) , thanks.
RESULT: 0.961
